Reported solubility values for the following compounds.
# Assay Overview: Kinetic solubility in PBS (HPLC solubility assay)
# Condition: PBS, aqueous buffer, kinetic from dmso stock, Solubility sample 1, Tables S1–S3, replicate 1
Number in µM, nothing else.

Look over these answered cases.
O=C(O)Cc1ccc(C(C(=O)NC2CCCC2)N(C(=O)c2cc(-c3ccccc3)n(-c3ccccc3)n2)c2ccc3c(c2)CCC3)cc1 (centres unmarked) [Compound 4, reference compound] :: 249
CCOC(=O)[C@H](CCC(=O)NCCNC(=O)Cc1ccc(C(C(=O)NC2CCCC2)N(C(=O)c2cc(-c3ccccc3)n(-c3ccccc3)n2)c2ccc3c(c2)CCC3)cc1)NC(=O)[C@@H](NC(=O)CNC(=O)/C=C/c1ccc(O)c(OC)c1)C(C)C (some centres unmarked) :: 0.68
O=C(O)CSc1nc2c([nH]c3ccccc32)c(=O)n1-c1ccccc1 [Compound 6, reference compound] :: 270
CCOC(=O)[C@H](CCC(=O)NCCCCCCNC(=O)Cc1ccc(C(C(=O)NC2CCCC2)N(C(=O)c2cc(-c3ccccc3)n(-c3ccccc3)n2)c2ccc3c(c2)CCC3)cc1)NC(=O)[C@@H](NC(=O)CNC(=O)/C=C/c1ccc(O)c(OC)c1)C(C)C (some centres unmarked) :: 0.85
CCOC(=O)[C@H](CCC(=O)NCCOCCOCCNC(=O)Cc1ccc(C(C(=O)NC2CCCC2)N(C(=O)c2cc(-c3ccccc3)n(-c3ccccc3)n2)c2ccc3c(c2)CCC3)cc1)NC(=O)[C@H](NC(=O)CNC(=O)/C=C/c1ccc(O)c(OC)c1)C(C)C (some centres unmarked) :: 2.59
COc1cc(/C=C/C(=O)NCC(=O)N[C@H](C(=O)N[C@H](CCC(=O)OC2CCCC2)C(=O)OC2CCCC2)C(C)C)ccc1OC(=O)CCCCCNC(=O)CSc1nc2c([nH]c3ccccc32)c(=O)n1-c1ccccc1 [Compound 2, reference compound] :: 0.26
CCOC(=O)[C@@H](CCC(=O)N1CCC(CN2CCN(C(=O)Cc3ccc(C(C(=O)NC4CCCC4)N(C(=O)c4cc(-c5ccccc5)n(-c5ccccc5)n4)c4ccc5c(c4)CCC5)cc3)CC2)CC1)NC(=O)[C@@H](NC(=O)CNC(=O)/C=C/c1ccc(O)c(OC)c1)C(C)C (some centres unmarked) :: 0.34

Now consider a different compound.
Would you mind telling me what solubility value was observed for CCOC(=O)[C@@H](CCC(=O)NCCCOCCOCCOCCCNC(=O)Cc1ccc(C(C(=O)NC2CCCC2)N(C(=O)c2cc(-c3ccccc3)n(-c3ccccc3)n2)c2ccc3c(c2)CCC3)cc1)NC(=O)[C@@H](NC(=O)CNC(=O)/C=C/c1ccc(O)c(OC)c1)C(C)C (some centres unmarked) ?
1.61

// data source = paper PMC12409580
